The values you see were collected from PubChem BioAssay AID440.

molecular target: fMet-Leu-Phe receptor (Homo sapiens) (UniProt P21462); test: human FPR ligands by binding competition, primary screen, cell-based, FPRL1 counter-screen, flow cytometry (AID 440); details: FPR-expressing cells, fluorescent ligand binding, hits give high values, concentration not given here;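 further: 0% = buffer wells and 100% = receptor blocker peptide wells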
Sequence (P21462 whole entry, looked up): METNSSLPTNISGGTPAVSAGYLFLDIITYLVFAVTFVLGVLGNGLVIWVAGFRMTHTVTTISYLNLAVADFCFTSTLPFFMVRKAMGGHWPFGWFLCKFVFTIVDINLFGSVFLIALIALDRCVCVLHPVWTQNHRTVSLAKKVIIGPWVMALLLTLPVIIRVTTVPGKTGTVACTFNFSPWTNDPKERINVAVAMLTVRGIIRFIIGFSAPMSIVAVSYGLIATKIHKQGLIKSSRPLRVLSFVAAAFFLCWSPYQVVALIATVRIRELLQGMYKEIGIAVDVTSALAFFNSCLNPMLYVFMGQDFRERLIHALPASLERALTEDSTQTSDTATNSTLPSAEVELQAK
The whole screen tested about 24,000 compounds, of which about 180 (0.75%) were called active. The entries come from a sample that favours actives as a whole.
Each entry below lists one item and its recorded inhibition value.
Field: numeric (%). Do not append units.

Please review the entries below; each comes with its answer.
Molecule | Value
Cc1cccc(N2C(=O)SC(N(CC(=O)O)c3cccc(C)c3)C2=O)c1 (stereo unspecified) | 76.8
CC1=C(C(=O)OCc2ccccc2)C(c2ccco2)n2ncnc2N1 (stereo unspecified) | -4.9

inhibition reading for CCC1Oc2ccc(Cl)cc2N(CC(=O)O)C1=O (stereo unspecified) : 4.3

Looking up O=C(C1=C(O)C(=O)N(Cc2ccccc2)C1c1ccco1)c1ccco1 (stereo unspecified) , I found its inhibition recorded as 43.1

Value of inhibition reported for the molecule O=C(Nc1ccccc1)N(Cc1cccnc1)Cc1ccco1 is 4.3

Input O=C(CSc1nnc(Cn2cnc3ccccc32)o1)c1ccccc1 . Output inhibition: 1.9
